Molecular target: Nuclear receptor subfamily 1 group I member 2 (Rattus norvegicus)
Test: qHTS assay for small molecule activators of the rat pregnane X receptor (rPXR) signaling pathway (AID 651751); further: 0% is about no effect
Conditions: rPXR reporter cells, luciferase (One-Glo), 24 h
measured-parameter: max response (%)

> print(dat)
                                  compound  test.result
1                     CN1C(=O)c2ccccc2C1=O        0.847
2                      Brc1ccccc1-c1ccccc1         13.4
3                       Cc1ncc(CO)c(CO)c1O        -2.11
4   COC(=O)c1c(Cl)c(Cl)c(C(=O)OC)c(Cl)c1Cl          2.2
5                             Nc1ccc(O)cc1         4.17
6                  CCCC(=O)c1cc(O)c(O)cc1O        -4.26
7          CCCCCCCCCCCC[N+](C)(C)Cc1ccccc1        0.668
8  C1=CC2C3C=CC(C3)C2C1 (stereo not drawn)         2.57
